Tested on: OVCAR-8 ovarian
assayComment: NCI-60 one-dose screen, 48 h (100 = growth as untreated, 0 = no growth, -100 = all killed)
experimentalParameters: 10 µM unless noted
Compounds without any hit were thinned out: in the full panel of roughly 83,000, 20% have a hit.

| molecule | targetOrSystem | quantityUnit | growth |
| --- | --- | --- | --- |
| Fc1cccc(NCOOC2(OOCNc3cccc(F)c3)CCCCC2)c1 | OVCAR-8 ovarian | % | 96.8 |
| C=CC[Se]C(=O)c1ccccc1OC(C)=O | OVCAR-8 ovarian | % | -12.8 |
| [Cl][Hg][n]1c(-c2ccco2)nc2ccccc21 | OVCAR-8 ovarian | % | 106 |
| Cc1ccc(C(=O)NCCCOc2ccc(N)cc2Cl)cc1S(=O)(=O)F | OVCAR-8 ovarian | % | 101 |
| CCN(CC)c1ccc2c(c1)OC(N)=C(C#N)C2c1cc(OC)c2c(c1)OCO2 (stereo unspecified) | OVCAR-8 ovarian | % | 17.6 |
| CSc1nc(Cl)cc(N2CC2)n1 | OVCAR-8 ovarian | % | 101 |
| COc1ccc(Nc2ccnc3cc(Cl)ccc23)cc1CN(CCCl)CCCl | OVCAR-8 ovarian | % | -39.3 |
| CC(C)=CCC[C@H](C(=O)O)[C@@H]1CC[C@]2(C)C3=C(CC[C@@]12C)[C@@]1(C)CC[C@H](O)C(C)(C)[C@@H]1CC3 | OVCAR-8 ovarian | % | 96.4 |
| CCCCCCCCC(CO)NCCc1ccccc1 (stereo unspecified) | OVCAR-8 ovarian | % | 81.1 |
| CC12CC=CCC1CCC1C2CCC2(C)C(c3ccc(=O)oc3)CCC12O (stereo unspecified) | OVCAR-8 ovarian | % | -41.8 |
| O=C(CCl)c1ccc([N+](=O)[O-])o1 | OVCAR-8 ovarian | % | 8.79 |

---

Items are presented alongside their recorded growth.
Tested on: RPMI-8226 leukemia
assayComment: NCI-60 one-dose screen, 48 h (100 = growth as untreated, 0 = no growth, -100 = all killed)
experimentalParameters: 10 µM unless noted
Compounds without any hit were thinned out: in the full panel of roughly 83,000, 20% have a hit. Activity calls are given as the source filed them. Rule for the calls: active = growth percent below 10; inactive = the rest.

| molecule | targetOrSystem | growth |
| --- | --- | --- |
| COc1ccc2c(c1)c(-c1nc(-c3cn(C)c4ncccc34)cs1)cn2CCN1CCOCC1 | RPMI-8226 leukemia | 13.3% (inactive) |
| N#CCCNc1ccccc1 | RPMI-8226 leukemia | 95.2% (inactive) |
| OCCNC(Cc1ccccc1)c1ccc2c(c1)OCO2 (stereo not given) | RPMI-8226 leukemia | 102% (inactive) |
| CCC1(C(C)C)C(=O)NC(=S)NC1=O | RPMI-8226 leukemia | 98.8% (inactive) |
| CC(=O)Nc1nc2c(s1)CC[C@@]1(C)C2=CC[C@H]2[C@@H]3CC[C@H](O)[C@@]3(C)CC[C@@H]21 | RPMI-8226 leukemia | 34.1% (inactive) |
| c1ccc(COc2ccc3[nH]cc(CCN(Cc4ccccc4)Cc4ccccc4)c3c2)cc1 | RPMI-8226 leukemia | 74.9% (inactive) |
| C[N+](C)(C)Cc1cc(Cl)ccc1O | RPMI-8226 leukemia | 76.3% (inactive) |
| COc1ccc(/C=C\c2cc(OC)c(OC)c(OC)c2)cc1OCC(=O)Nc1nc2ccc(C(F)(F)F)cc2s1 | RPMI-8226 leukemia | 21.2% (inactive) |
| CN(C)C1C(=O)C(C(N)=O)=C(O)C2(O)C(=O)C3=C(O)c4c(O)cccc4C(C)(O)C3CC12.[Cl][Sb]([Cl])[Cl] (stereo not given) | RPMI-8226 leukemia | 15.4% (inactive) |
| CC(=O)OCc1cc[c]([Hg][Cl])o1 | RPMI-8226 leukemia | 26.4% (inactive) |
| CCOC(=O)[C@@H](C)C[C@H](Cc1ccccc1)NC(=O)c1nc([C@@H](C[C@H](C(C)C)N(C)C(=O)[C@@H](NC(=O)[C@H]2CCCCN2C)C(C)C)OC(C)=O)sc1CCOCc1ccccc1 | RPMI-8226 leukemia | -32% (active) |
| C[C@]12CCc3sc(-c4ccccc4O)nc3C1=CC[C@@H]1[C@@H]2CC[C@]2(C)C(=O)CC[C@@H]12 | RPMI-8226 leukemia | 107% (inactive) |
| CO[C@H]1CC[C@@]2(C)C(=CC[C@@H]3[C@@H]2CC[C@]2(C)C(=O)C(=O)C[C@@H]32)C1 | RPMI-8226 leukemia | 88.9% (inactive) |
| CC1(C)CN1P(=O)(N1CC1(C)C)N1CC1(C)C (stereo not given) | RPMI-8226 leukemia | 105% (inactive) |
| N#C[Se]CCN1C(=O)c2ccccc2C1=O | RPMI-8226 leukemia | 59.5% (inactive) |
| CC(=O)O[C@@H]1CC[C@]2(C)[C@H]3CC[C@]4(C)C(=O)CC[C@H]4[C@@H]3C[C@@H]3SC(N)=N[C@@]32C1 | RPMI-8226 leukemia | 48.4% (inactive) |
| O=C(CCCCCCC(=O)Nc1ccc(N(CCCl)CCCl)cc1)NO | RPMI-8226 leukemia | 49.1% (inactive) |
| CC(=O)[O][Hg][O]C(C)=O | RPMI-8226 leukemia | 90.1% (inactive) |
| CN[C@]1(c2ccccc2Cl)CCCC[C@H]1NCCCN1CCN(C)CC1 | RPMI-8226 leukemia | 97.3% (inactive) |
| ClC1=C(Cl)C(Cl)(C2(Cl)C(Cl)=C(Cl)C(Cl)=C2Cl)C(Cl)=C1Cl | RPMI-8226 leukemia | -37.8% (active) |

---

Test system: MCF7 breast
assayComment: NCI-60 one-dose screen, 48 h
experimentalParameters: 10 µM unless noted
Procedure: Growth inhibition of the MCF7 human tumor cell line is measured as a screen for anti-cancer activity. Cells are grown in 96 well plates and exposed to the test compound for 48 hours. Compounds are tested at a single concentration, which is 10^-5 M for most compounds. The reported endpoint is percent growth (GI% or GIPRCNT), where numbers from 0 - 100% represent growth inhibition, and numbers from -100% - 0 represent cell death. For example, a value of 40 represents 60% growth inhibition. […]
Compounds without any hit were thinned out: in the full panel of roughly 83,000, 20% have a hit. Calls of active or inactive are those of the source. The calls were made as follows: active = growth percent below 10; inactive = the rest.
Outcomes: T = active, F = inactive

| compound | qualitativeLabel |
| --- | --- |
| CC[C@H](C)[C@H](NC(=O)[C@H]1CCCCN1C)C(=O)N(C)[C@H](CC(=O)c1nc(C(=O)N[C@@H](Cc2ccccc2)C[C@H](C)C(=O)O)cs1)C(C)C | F |
| CNC(=O)Oc1cccc(C(F)(F)F)c1 | F |
| c1ccc(Nc2nc(-c3ccccc3)c[se]2)cc1 | F |
| COC(=O)[C@@H](C)C[C@H](Cc1ccccc1)NC(=O)c1csc([C@@H](C[C@H](C(C)C)N(C)C(=O)C2(NC(=O)[C@H]3CCCCN3C)CC2)OC(C)=O)n1 | F |
| N#CC1(c2ccccc2)CCN(Cc2ccccc2)CC1 | F |
| COc1cc([C@@H]2c3cc4c(cc3[C@H](OC(C)=O)[C@H]3COC(=O)[C@H]23)OCO4)cc(OC)c1OC | F |
| O=C(Nc1ccncc1F)c1cn(CC2CC2)c2ccccc12 | F |
| O=C(CC1(O)C(=O)Nc2ccc(Cl)cc21)c1ccc(C(=O)NCC2CCC3(CC2)OOC2(CCCCC2)OO3)cc1 (configuration not stated) | F |
| COC(=O)[C@@H](C)C[C@H](Cc1ccccc1)NC(=O)c1csc([C@@H](C[C@H](C(C)C)N(C)C(=O)[C@@H](NC(=O)[C@H]2CCCN2C)C2CC2)OC(C)=O)n1 | F |
| COc1cccc(C=NC(Cc2cnc[nH]2)C(=O)O)c1O (configuration not stated) | F |
| CCC1CN1CCCCN1CC1CC (configuration not stated) | F |
| COC(=O)[C@@]1(O)C[C@H]2O[C@]1(C)n1c3ccccc3c3c4c(c5c6ccccc6n2c5c31)C(=O)NC4 | T |
| O=C(c1ccccc1O)c1[nH]c(Cl)c(Cl)c1-n1c(C(=O)c2ccccc2O)cc(Cl)c1Cl | T |
| NC(CCl)CCl | F |
| COC(=O)[C@@H](C)C[C@H](Cc1ccccc1)NC(=O)c1nc([C@@H](C[C@H](C(C)C)N(C)C(=O)[C@@H](NC(=O)[C@H]2C[C@H](O)CCN2C)C(C)C)OC(C)=O)sc1C(C)C | F |
| CC(C)(C)C(=O)OCOP(=O)(NCc1ccccc1)C1CCCN(O)C1=O (configuration not stated) | F |
| COC(=O)[C@@H](C)C[C@H](Cc1ccc2ccccc2c1)NC(=O)c1csc([C@@H](C[C@H](C(C)C)N(C)C(=O)[C@@H](NC(=O)[C@H]2CCCCN2C)C(C)C)OC(C)=O)n1 | F |
| COc1ccc(C(=O)c2sc3nc4c(cc3c2N)N2CCC4CC2)cc1OC | F |
| O=C([O][Hg][CH2]C1COCC([CH2][Hg][O]C(=O)c2ccccc2)O1)c1ccccc1 (configuration not stated) | F |
| CCCCCCCCOC(=O)CCN1CC1 | F |
| C#C[C@]1(OC(=O)CCCCCC)CC[C@H]2[C@@H]3CCC4=CC(=O)CC[C@@H]4[C@H]3CC[C@@]21C | F |
| Clc1cccc(NCOOC2(OOCNc3cccc(Cl)c3)CCCCC2)c1 | F |
| COC(=O)[C@@H](C)C[C@H](Cc1ccccc1)NC(=O)c1nc([C@@H](C[C@H](C(C)C)N(C)C(=O)[C@@H](NC(=O)[C@H]2CCCCN2C)C(C)C)OC(C)=O)sc1C(C)C | F |
| COc1ccc(/C=C\c2cc(OC)c(OC)c(OC)c2)cc1OCC(=O)Nc1nc2ccc(OC(F)(F)F)cc2s1 | F |
| O=P1(NCCCl)OCCCN1CCCl (configuration not stated) | F |
| COC(=O)[C@@H](C)C[C@H](Cc1ccccc1)NC(=O)c1nc([C@@H](C[C@H](C(C)C)N(C)C(=O)[C@@H](NC(=O)[C@H]2CC(=O)CCN2C)C(C)C)OC(C)=O)sc1C(C)C | F |
| CCn1c2ccccc2c2cc(C(=O)c3cccc4c3CCCN4)ccc21 | F |
| N#C[Se]Cc1cc(-c2ccccc2)n(-c2ccc(S(N)(=O)=O)cc2)n1 | T |
| O=C(Nc1ccc(Cl)cc1)Nc1nccs1 | F |
| COc1cc([N+](=O)[O-])c2nc(C)ccc2c1[N+](=O)[O-] | F |
| CC1CN1CCCCN1CC1C (configuration not stated) | F |
| COc1cc2c(=O)n(C3CCCCCCC3)c3c4cc[nH]c4ncc3c2cc1OC | F |
| N#C[Se]CCN1C(=O)c2ccccc2C1=O | F |
| O=C(O)c1ccc([S-])cc1.[Au+].c1ccc(CN2[CH-]N(Cc3ccccc3)C(c3ccccc3)=C2c2ccccc2)cc1 | T |
| Nc1c(F)cc(-c2nc3cc(F)ccc3[se]2)cc1Br | T |
| C=COC(=O)CCN1CC1 | F |
| Cc1cc(-c2nc3cc(F)ccc3[se]2)cc(F)c1N | T |
